# test.target: Integrin alpha-4/beta-7 (Homo sapiens, UniProt P13612+P26010)
# Sequence (P13612 whole entry): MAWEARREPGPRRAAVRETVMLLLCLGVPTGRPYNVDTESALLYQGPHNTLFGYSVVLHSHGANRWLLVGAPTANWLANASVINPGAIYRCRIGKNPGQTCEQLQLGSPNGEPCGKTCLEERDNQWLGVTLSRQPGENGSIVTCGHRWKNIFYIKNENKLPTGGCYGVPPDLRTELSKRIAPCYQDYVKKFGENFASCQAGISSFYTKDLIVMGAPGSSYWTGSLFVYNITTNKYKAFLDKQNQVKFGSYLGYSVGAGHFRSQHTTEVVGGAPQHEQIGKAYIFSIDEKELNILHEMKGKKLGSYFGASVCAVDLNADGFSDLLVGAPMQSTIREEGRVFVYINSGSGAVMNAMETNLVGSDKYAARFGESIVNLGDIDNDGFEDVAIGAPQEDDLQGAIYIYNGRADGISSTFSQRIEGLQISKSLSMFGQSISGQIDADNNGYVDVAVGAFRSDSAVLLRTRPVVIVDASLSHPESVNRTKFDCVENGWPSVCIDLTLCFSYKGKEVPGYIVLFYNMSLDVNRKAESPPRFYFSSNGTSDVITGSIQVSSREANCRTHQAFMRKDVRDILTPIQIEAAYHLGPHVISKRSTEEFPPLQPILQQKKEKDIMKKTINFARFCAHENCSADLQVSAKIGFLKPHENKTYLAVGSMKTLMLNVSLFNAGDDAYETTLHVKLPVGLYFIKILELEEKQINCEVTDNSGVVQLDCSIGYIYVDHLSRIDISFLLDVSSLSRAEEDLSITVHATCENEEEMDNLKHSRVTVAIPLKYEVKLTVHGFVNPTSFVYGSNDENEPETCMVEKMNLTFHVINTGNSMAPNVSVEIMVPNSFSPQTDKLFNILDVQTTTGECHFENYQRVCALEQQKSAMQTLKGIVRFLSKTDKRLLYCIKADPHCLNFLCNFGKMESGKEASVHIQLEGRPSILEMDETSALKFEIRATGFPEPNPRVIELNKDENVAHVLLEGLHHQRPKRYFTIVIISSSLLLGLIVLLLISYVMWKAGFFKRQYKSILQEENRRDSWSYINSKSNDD
# Sequence (P26010 whole entry): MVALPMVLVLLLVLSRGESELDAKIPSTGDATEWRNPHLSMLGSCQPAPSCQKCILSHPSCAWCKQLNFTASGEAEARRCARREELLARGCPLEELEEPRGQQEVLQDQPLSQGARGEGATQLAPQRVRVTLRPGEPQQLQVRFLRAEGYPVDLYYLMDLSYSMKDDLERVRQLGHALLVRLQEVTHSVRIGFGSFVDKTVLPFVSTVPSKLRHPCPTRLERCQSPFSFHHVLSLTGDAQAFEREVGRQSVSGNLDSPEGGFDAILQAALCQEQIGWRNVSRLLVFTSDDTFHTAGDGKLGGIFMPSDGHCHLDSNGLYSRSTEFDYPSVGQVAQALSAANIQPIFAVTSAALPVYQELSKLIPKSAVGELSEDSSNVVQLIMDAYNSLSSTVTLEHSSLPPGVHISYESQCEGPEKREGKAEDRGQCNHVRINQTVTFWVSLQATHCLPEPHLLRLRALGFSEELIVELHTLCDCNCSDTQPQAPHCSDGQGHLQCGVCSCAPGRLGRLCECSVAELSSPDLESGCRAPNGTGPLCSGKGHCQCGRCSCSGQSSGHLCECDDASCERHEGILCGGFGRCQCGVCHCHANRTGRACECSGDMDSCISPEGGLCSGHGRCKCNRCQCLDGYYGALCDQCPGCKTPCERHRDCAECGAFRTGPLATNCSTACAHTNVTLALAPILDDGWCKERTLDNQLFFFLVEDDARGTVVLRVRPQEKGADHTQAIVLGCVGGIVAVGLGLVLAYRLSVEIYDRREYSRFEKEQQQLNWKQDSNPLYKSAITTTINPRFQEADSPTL
# assay.explanation: Inhibition of alpha-4-beta-7/MAdCAM interactions
quantity.kind: IC50 (µM)
Kindly answer with a numeric value in µM, unit omitted.

Below: 5 compounds and their reported IC50.
CC(C)C[C@H](NC(=O)c1cc2ccccc2cn1)C(=O)N[C@@H](CC(=O)O)C(=O)N[C@H](C(N)=O)[C@@H](C)O; 465
CC(C)C[C@@H]1NC(=O)[C@H](Cc2ccccc2)NC(=O)[C@H]2CCCN2C(=O)[C@H](C)NC(=O)[C@H]([C@@H](C)O)NC(=O)[C@H](CC(=O)O)NC1=O; 292
CC(C)C[C@@H]1NC(=O)[C@H](Cc2ccc(O)cc2)NC(=O)[C@H]2CCCN2C(=O)[C@H](CC(=O)O)NC(=O)[C@H]([C@@H](C)O)NC(=O)[C@H](CC(=O)O)NC1=O; 308
CC(C)C[C@@H]1NC(=O)[C@H](Cc2c[nH]cn2)NC(=O)[C@H]2CCCN2C(=O)[C@H](CC(=O)O)NC(=O)[C@H]([C@@H](C)O)NC(=O)[C@H](CC(=O)O)NC1=O; 301
CC(C)C[C@@H]1NC(=O)[C@H](Cc2ccccc2)NC(=O)[C@H]2CCCN2C(=O)[C@H](CC(=O)O)NC(=O)[C@H]([C@@H](C)O)NC(=O)[C@H](CC(=O)O)NC1=O; 163

Now let's try a different one.
Lookup: Please respond with reported IC50 (system Integrin alpha-4/beta-7 (Homo sapiens, UniProt P13612+P26010)) for "CSCC[C@@H]1NC(=O)[C@H]2CCCN2C(=O)[C@H](CC(=O)O)NC(=O)[C@H]([C@@H](C)O)NC(=O)[C@H](CC(=O)O)NC(=O)[C@H](CC(C)C)NC1=O" .
Found: 317

---

Adhesion overview
# test.target: Integrin alpha-4/beta-1 (Homo sapiens) (UniProt P05556+P13612)
# assay.explanation: Inhibition of alpha4-beta1 lymphoma cell binding to CHO-VCAM-1 cells.
# Assay type: cell-based
Kindly answer with a numeric value in %, unit omitted.

Below: 2 compounds and their reported Adhesion.
CC(C)C[C@@H]1NC(=O)[C@@H](Cc2ccc(O)cc2)NC(=O)[C@H]2CCCN2C(=O)[C@@H](CC(=O)O)NC(=O)[C@H]([C@@H](C)O)NC(=O)[C@@H](CC(=O)O)NC1=O; 78
CC(C)C[C@@H]1NC(=O)[C@@H](Cc2c[nH]cn2)NC(=O)[C@H]2CCCN2C(=O)[C@@H](CC(=O)O)NC(=O)[C@H]([C@@H](C)O)NC(=O)[C@@H](CC(=O)O)NC1=O; 74

Now let's try a different one.
Lookup: Please respond with reported Adhesion (system Integrin alpha-4/beta-1 (Homo sapiens) (UniProt P05556+P13612)) for "CSCC[C@H]1NC(=O)[C@H]2CCCN2C(=O)[C@@H](CC(=O)O)NC(=O)[C@H]([C@@H](C)O)NC(=O)[C@@H](CC(=O)O)NC(=O)[C@H](CC(C)C)NC1=O" .
Found: 108

---

Adhesion overview
# test.target: Integrin alpha-4/beta-7 (Homo sapiens) (UniProt P13612+P26010)
# assay.explanation: Ability to inhibit adhesion of alpha4-beta7 integrin expressing 38-beta7 lymphoma cells to chinese hamster ovary (CHO) cells stably transfected with MAdCAM-1
# Assay type: cell-based

Below: 3 molecules and their reported Adhesion.
CC(C)C[C@@H]1NC(=O)[C@@H](CC(=O)O)NC(=O)[C@@H](Cc2ccccc2)NC(=O)[C@@H](C)NC(=O)[C@H]([C@@H](C)O)NC(=O)[C@@H](CC(=O)O)NC1=O; 86%
CC(C)C[C@@H]1NC(=O)[C@@H](CC(=O)O)NC(=O)[C@H]2CCCN2C(=O)[C@@H](Cc2ccccc2)NC(=O)[C@H]([C@@H](C)O)NC(=O)[C@@H](CC(=O)O)NC1=O; 100%
CC(C)C[C@@H]1NC(=O)[C@@H](CC(=O)O)NC(=O)[C@H]2CCCN2C(=O)[C@@H](Cc2ccc(O)cc2)NC(=O)[C@H]([C@@H](C)O)NC(=O)[C@@H](CC(=O)O)NC1=O; 76%

Now let's try a different one.
Lookup: Consider the molecule "CC(C)C[C@@H]1NC(=O)[C@@H](CC(=O)O)NC(=O)[C@H]2CCCN2C(=O)[C@@H](Cc2c[nH]c3ccccc23)NC(=O)[C@H]([C@@H](C)O)NC(=O)[C@@H](CC(=O)O)NC1=O" . State its measured Adhesion.
Found: 87%
